# subjectOfTest: Farnesyl-protein transferase (FTase)
# protocolDetails: In vitro inhibition of Ras farnesyl transferase (farnesylation of Ras-CVLS with [3H]FPP)
# appliedConditions: Ras-CVLS 3.5 μM, [3H]FPP 0.25 μM; partially purified bovine or recombinant human enzyme; read-out: IC50 (concentration of the test compound which gives 50% inhibition of FTase)
pIC50: −log10 of the molar value.
Listing of entries alongside the reported pIC50.

>  <compound>
N[C@@H](CS)C(=O)NC1N=C(c2ccccc2)c2ccccc2NC1=O (single isomer, unassigned) [2 - slower eluting isomer]

>  <subjectOfTest>
Farnesyl-protein transferase (FTase)

>  <pIC50>
4.38

$$$$
>  <compound>
CN(C(=O)[C@@H](N)CS)C1N=C(c2ccccc2)c2ccccc2NC1=O (single isomer, unassigned) [1 - faster eluting isomer]

>  <subjectOfTest>
Farnesyl-protein transferase (FTase)

>  <pIC50>
5.59

$$$$
>  <compound>
N[C@@H](CS)C(=O)NC1N=C(c2ccccc2)c2ccccc2NC1=O (single isomer, unassigned) [2 - faster eluting isomer]

>  <subjectOfTest>
Farnesyl-protein transferase (FTase)

>  <pIC50>
5.80

$$$$
